# ASSAY_PROTOCOL: NCI Yeast Anticancer Drug Screen. Data for the rad50 strain (AID 155);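 further: 0% = growth of vehicle-only cultures of the same strain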
# RUN_PARAMETERS: S. cerevisiae rad50 strain growth inhibition; at 50.0 µM
About 79,000 compounds went through this panel and 15% of them were active in at least one assay; those are over-represented in the sample as a whole. Active and inactive are the calls of the source. No stated cut-off is given here; in the data, active means growth inhibition above about 70%; inactive means the rest.
Respond with a class label; see true (1) for active, false (0) for inactive

# count of solved cases: 5
In [3]: df
Out[3]:
                                   compound  assigned_label
0        Cc1ccc(-c2cc(O)c3nc4ccccc4n3c2)cc1       false (0)
1  CCCCOC(=O)C1CCCCC1C(=O)OCCCC (configuration not stated)       false (0)
2    CCCCc1c2cnccc2c(CCCC)c2c1[nH]c1ccccc12        true (1)
3   CC(O)C(=O)NN (configuration not stated)       false (0)
4  O=[N+]([O-])c1cccc(NSNc2cccc([N+](=O)[O-])c2)c1       false (0)

Task: Which outcome was assigned to `COC(=O)c1cc(C)n(C)c(=O)c1CNS(=O)(=O)c1ccc(C)cc1` in this test?
Output: false (0)

Task: Each compound tested received a call. Report the one for `CC(=O)Nc1cccc(Cl)c1` .
Output: false (0)

Sourced from PubChem BioAssay (NCI)
